Each recorded value in this set is attributed to PubChem BioAssay AID2060902.

System: 485368-065-R3-J5-PDC spheroids with HUVEC/MSC, viability
Experiment: Anticancer human tumor 485368-065-R3-J5-PDC patient-derived pancreatic carcinoma cell line growth inhibition [RAS]
Settings: compound 0.1 µM; stronger effect = lower value
MEASUREMENT_KIND: viability, T/C

INPUT: Please look up its viability, T/C: C#Cc1c(F)ccc2cc(O)cc(-c3ncc4c(N5CC6CCC(C5)N6)nc(OCC56CCCN5CC(F)C6)nc4c3F)c12 (stereo unspecified)
OUTPUT: 108% [middle of 8 runs]

###

Test system: 485368-065-R3-J5-PDC spheroids with HUVEC/MSC, viability
Experiment: Anticancer human tumor 485368-065-R3-J5-PDC cell line growth inhibition [RAS];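 further: spheroids exposed to agents for seven days before readout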
Details: curve of first compound; second compound 0.3 µM
MEASUREMENT_KIND: IC50

INPUT: Find IC50 (485368-065-R3-J5-PDC spheroids with HUVEC/MSC, viability) for the entry NC1c2ccccc2OC12CCN(c1cnc3c(N4CCCc5ncccc54)n[nH]c3n1)CC2 (stereo not given) + CCn1c(-c2cc(N3CCN(C)CC3)cnc2C(C)OC)c2c3cc(ccc31)-c1csc(n1)CC(NC(=O)C1CC1C)C(=O)N1CCCC(N1)C(=O)OCC(C)(C)C2
OUTPUT: < 31.6 nM

More entries:
INPUT: Find IC50 (485368-065-R3-J5-PDC spheroids with HUVEC/MSC, viability) for the entry CCN1CCN(Cc2ccc(Nc3ncc(F)c(-c4cc(F)c5nc(C)n(C(C)C)c5c4)n3)nc2)CC1 + CCn1c(-c2cc(N3CCN(C)CC3)cnc2C(C)OC)c2c3cc(ccc31)-c1csc(n1)CC(NC(=O)C1CC1C)C(=O)N1CCCC(N1)C(=O)OCC(C)(C)C2
OUTPUT: < 3.16 nM

INPUT: Find IC50 (485368-065-R3-J5-PDC spheroids with HUVEC/MSC, viability) for the entry C=CC(=O)N1CCN(c2nc(OCC3CCCN3C)nc3c(F)c(-c4nc(N)cc(C)c4C(F)(F)F)c(Cl)cc23)C(C)C1 (stereo not given) + CCn1c(-c2cc(N3CCN(C)CC3)cnc2C(C)OC)c2c3cc(ccc31)-c1csc(n1)CC(NC(=O)C1CC1C)C(=O)N1CCCC(N1)C(=O)OCC(C)(C)C2
OUTPUT: < 3.16 nM

INPUT: Find IC50 (485368-065-R3-J5-PDC spheroids with HUVEC/MSC, viability) for the entry CCC(CC)c1cc(NC2CCC(N)C2)n2nccc2n1 (stereo not given) + CCn1c(-c2cc(N3CCN(C)CC3)cnc2C(C)OC)c2c3cc(ccc31)-c1csc(n1)CC(NC(=O)C1CC1C)C(=O)N1CCCC(N1)C(=O)OCC(C)(C)C2
OUTPUT: < 31.6 nM

INPUT: Find IC50 (485368-065-R3-J5-PDC spheroids with HUVEC/MSC, viability) for the entry O=C(c1ccc(F)c(F)c1Nc1ccc(I)cc1F)N1CC(O)([C@@H]2CCCCN2)C1 + CCn1c(-c2cccnc2C(C)OC)c2c3cc(ccc31)N1CCOC(CC(NC(=O)C(C(C)C)N(C)C(=O)C3(F)CCN(C(=O)C#CC(C)(C)N(C)C)CC3)C(=O)N3CCCC(N3)C(=O)OCC(C)(C)C2)C1
OUTPUT: 40.4 nM

INPUT: Find IC50 (485368-065-R3-J5-PDC spheroids with HUVEC/MSC, viability) for the entry CC(C)NCC(C(=O)N1CCN(c2ncnc3c2C(C)CC3O)CC1)c1ccc(Cl)cc1 (stereo not given) + CCn1c(-c2cc(N3CCN(C)CC3)cnc2C(C)OC)c2c3cc(ccc31)-c1csc(n1)CC(NC(=O)C1CC1C)C(=O)N1CCCC(N1)C(=O)OCC(C)(C)C2
OUTPUT: < 31.6 nM

INPUT: Find IC50 (485368-065-R3-J5-PDC spheroids with HUVEC/MSC, viability) for the entry C=CC(=O)Nc1cc(Nc2nccc(-c3cn(C)c4ccccc34)n2)c(OC)cc1N(C)CCN(C)C + CCn1c(-c2cc(N3CCN(C)CC3)cnc2C(C)OC)c2c3cc(ccc31)-c1csc(n1)CC(NC(=O)C1CC1C)C(=O)N1CCCC(N1)C(=O)OCC(C)(C)C2
OUTPUT: < 3.16 nM

INPUT: Find IC50 (485368-065-R3-J5-PDC spheroids with HUVEC/MSC, viability) for the entry CC1(C)CCC(Nc2ncc(C(F)(F)F)c(-c3c[nH]c4c(P(C)(C)=O)c(C#N)ccc34)n2)CN1 (stereo not given) + CCn1c(-c2cccnc2C(C)OC)c2c3cc(ccc31)N1CCOC(CC(NC(=O)C(C(C)C)N(C)C(=O)C3(F)CCN(C(=O)C#CC(C)(C)N(C)C)CC3)C(=O)N3CCCC(N3)C(=O)OCC(C)(C)C2)C1
OUTPUT: 17.6 nM

INPUT: Find IC50 (485368-065-R3-J5-PDC spheroids with HUVEC/MSC, viability) for the entry Cc1nc(N2CCC3(CC2)COC(C)C3N)c(CO)nc1Sc1ccnc(N)c1Cl (stereo not given) + CCn1c(-c2cccnc2C(C)OC)c2c3cc(ccc31)N1CCOC(CC(NC(=O)C(C(C)C)N(C)C(=O)C3(F)CCN(C(=O)C#CC(C)(C)N(C)C)CC3)C(=O)N3CCCC(N3)C(=O)OCC(C)(C)C2)C1
OUTPUT: > 10000 nM

INPUT: Find IC50 (485368-065-R3-J5-PDC spheroids with HUVEC/MSC, viability) for the entry CC1(O)CCCC1n1c(=O)c(C(F)F)cc2cnc(NC3CCN(S(C)(=O)=O)CC3)nc21 (stereo not given) + CCn1c(-c2cc(N3CCN(C)CC3)cnc2C(C)OC)c2c3cc(ccc31)-c1csc(n1)CC(NC(=O)C1CC1C)C(=O)N1CCCC(N1)C(=O)OCC(C)(C)C2
OUTPUT: < 31.6 nM

INPUT: Find IC50 (485368-065-R3-J5-PDC spheroids with HUVEC/MSC, viability) for the entry CC1(O)CCCC1n1c(=O)c(C(F)F)cc2cnc(NC3CCN(S(C)(=O)=O)CC3)nc21 (stereo not given) + CCn1c(-c2cccnc2C(C)OC)c2c3cc(ccc31)N1CCOC(CC(NC(=O)C(C(C)C)N(C)C(=O)C3(F)CCN(C(=O)C#CC(C)(C)N(C)C)CC3)C(=O)N3CCCC(N3)C(=O)OCC(C)(C)C2)C1
OUTPUT: 656 nM

INPUT: Find IC50 (485368-065-R3-J5-PDC spheroids with HUVEC/MSC, viability) for the entry CC(C)n1nc(-c2ccc3oc(N)nc3c2)c2c(N)ncnc21 + CCn1c(-c2cc(N3CCN(C)CC3)cnc2C(C)OC)c2c3cc(ccc31)-c1csc(n1)CC(NC(=O)C1CC1C)C(=O)N1CCCC(N1)C(=O)OCC(C)(C)C2
OUTPUT: < 0.316 nM

INPUT: Find IC50 (485368-065-R3-J5-PDC spheroids with HUVEC/MSC, viability) for the entry O=C(c1ccc(F)c(F)c1Nc1ccc(I)cc1F)N1CC(O)([C@@H]2CCCCN2)C1 + CCn1c(-c2cc(N3CCN(C)CC3)cnc2C(C)OC)c2c3cc(ccc31)-c1csc(n1)CC(NC(=O)C1CC1C)C(=O)N1CCCC(N1)C(=O)OCC(C)(C)C2
OUTPUT: < 3.16 nM

INPUT: Find IC50 (485368-065-R3-J5-PDC spheroids with HUVEC/MSC, viability) for the entry CC1(C)CCC(Nc2ncc(C(F)(F)F)c(-c3c[nH]c4c(P(C)(C)=O)c(C#N)ccc34)n2)CN1 (stereo not given) + CCn1c(-c2cc(N3CCN(C)CC3)cnc2C(C)OC)c2c3cc(ccc31)-c1csc(n1)CC(NC(=O)C1CC1C)C(=O)N1CCCC(N1)C(=O)OCC(C)(C)C2
OUTPUT: < 0.949 nM

INPUT: Find IC50 (485368-065-R3-J5-PDC spheroids with HUVEC/MSC, viability) for the entry C[C@@H](NC(=O)c1ncnc(N)c1Cl)c1ncc(C(=O)Nc2cc(C(F)(F)F)c(Cl)cn2)s1 + CCn1c(-c2cccnc2C(C)OC)c2c3cc(ccc31)N1CCOC(CC(NC(=O)C(C(C)C)N(C)C(=O)C3(F)CCN(C(=O)C#CC(C)(C)N(C)C)CC3)C(=O)N3CCCC(N3)C(=O)OCC(C)(C)C2)C1
OUTPUT: > 10000 nM
